Origin of values: PubChem BioAssay (NCI)

test summary: NCI Yeast Anticancer Drug Screen. Data for the mlh1 rad18 strain (AID 175)
conditions used: S. cerevisiae mlh1 rad18 strain growth inhibition; at 50.0 µM; hits give high values
The panel holds about 79,000 compounds, 15% with a hit somewhere; the sample as a whole holds those more often.
result type: growth inhibition (%)
Respond numerically; units are % and should not be typed.

As a guide, the following entries are already answered.
INSERT INTO results (smiles_input, reported_measurement) VALUES
  ('O=C(O)c1cccn1-c1ccccc1', -15.6),
  ('c1ccc2c(c1)OP1(=NP3(=NP4(=NP5(=N1)Oc1ccccc1-c1ccccc1O5)Oc1ccccc1-c1ccccc1O4)Oc1ccccc1-c1ccccc1O3)Oc1ccccc1-2', 17.2),
  ('CCOC(=O)Cn1c(=O)c2ccccc2c2cc([N+](=O)[O-])ccc21', -11.7),
  ('CC(=O)OC(Cc1ccc2ccccc2n1)(C(F)(F)F)C(F)(F)F', -24.5),
  ('CCN(CC)CCCNc1cccc2nc(Cl)ccc12', 9.25);

Sample CN(C)CCNc1ccc(CO)c2sc3ccc(O)cc3c(=O)c12 ; growth inhibition observed: -9.25

====

test summary: NCI Yeast Anticancer Drug Screen. Data for the mec2-1 strain (AID 157)
conditions used: S. cerevisiae mec2-1 strain, at 50.0 µM
About 79,000 compounds went through this panel and 15% of them were active in at least one assay; those are over-represented in the sample as a whole. The source made the active and inactive calls. Cut-off read from the data, not from the text of the source: active = growth inhibition above about 70%; inactive = the rest.
Field 'call' accepts active, inactive

Record excerpt, results attached:
INSERT INTO results (compound, class_assignment) VALUES
  ('OC(CNc1ccccn1)c1ccccc1 (stereo not drawn)', 'inactive'),
  ('Cc1ccc(S(=O)(=O)OC2C(C)(C)C(=O)C2(C)C)cc1', 'inactive'),
  ('O=S(=O)(O)CCS(=O)(=O)O', 'inactive'),
  ('CC(C)N(C(=O)C12C3C4C5C3C1(C#N)C5C42)C(C)C (stereo not drawn)', 'inactive'),
  ('COC(=O)C1CCc2c(ccc3cc(OC)ccc23)C1(C)C(=O)OC (stereo not drawn)', 'inactive');

Status in this test for CN1C(C)(C)CC(O)(C(O)(c2ccccc2)c2ccccc2)CC1(C)C ?
inactive

Status in this test for CCN(CC)C(=O)C(C)n1cc(C)c(=O)[nH]c1=O (stereo not drawn) ?
inactive

Status in this test for CCN(CC)CCN1C(=O)c2cccc3cc(N)cc(c23)C1=O ?
inactive

====

test summary: NCI Yeast Anticancer Drug Screen. Data for the rad50 strain (AID 155);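 note: 0% = growth of vehicle-only cultures of the same strain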
conditions used: S. cerevisiae rad50 strain growth inhibition; at 50.0 µM; hits give high values
This is part of a sample that, as a whole, favours compounds with a hit. Of some 79,000 tested, about 15% had one in any assay.
result type: growth inhibition (%)
Respond numerically; units are % and should not be typed.

INSERT INTO results (compound, result_type, reported_measurement) VALUES
  ('COc1cc(C)oc(=O)c1', 'growth inhibition', -6.1),
  ('COC1=CC(=O)C2CC=C(C)CC2(C)C1=O (centres undefined)', 'growth inhibition', -7.9),
  ('CCOC(=O)CC1(O)C(=O)N(Cc2ccccc2)c2ccccc21 (centres undefined)', 'growth inhibition', 15.6);

Sample c1ccc2c(SCN3CCOCC3)cccc2c1 (tested in a mixture with another compound) ; growth inhibition observed: 35

Sample COc1ccc(C2COc3cc4c(cc3C2)OCO4)cc1 (centres undefined) ; growth inhibition observed: -22.4

Sample Cc1ncc(C(=O)O)c(CO)c1N ; growth inhibition observed: 7.45

Sample c1ccc(CSc2cnnc3ccccc23)cc1 ; growth inhibition observed: 3.9

Sample CC(C)c1ccc(/C=N\NC(=O)NNC(=O)c2ccccc2)cc1 ; growth inhibition observed: -3.05

Sample O=S(=O)(O)n1ccnc1 (tested in a mixture with another compound) ; growth inhibition observed: 20.9

Sample O=C(O)c1cnc2c(ccc3[nH]cccc32)c1=O ; growth inhibition observed: -7.3

Sample CO[C@@]12CC(=O)/C(=C(O)\C=C\c3ccccc3)C(=O)[C@]1(OC)Cc1ccccc1O2 ; growth inhibition observed: 35.1

Sample O=C1/C(=C/c2ccccc2)CC/C1=C\c1ccccc1 ; growth inhibition observed: 5.35

Sample COC(=O)CC1C=CC(OC)[C@@]2(C)C(=O)C(OC)=CC(=O)[C@@H]12 (some centres undefined) ; growth inhibition observed: 8.7

Sample CCCCCCCCC/C=C\C(=O)O ; growth inhibition observed: 4.6

Sample CCCCCOC(=O)c1c(Cl)c(Cl)c(C(=O)OCCCCC)c(Cl)c1Cl ; growth inhibition observed: -18.2

Sample COc1cc2c(cc1OC)[C@H](C)N1CCc3cc(OC)c(OC)cc3[C@@H]1C2 ; growth inhibition observed: 2.1

Sample O=C1c2ccccc2S(=O)(=O)c2cc(-c3nn[nH]n3)ccc21 ; growth inhibition observed: -2.6

Sample CCCCCCC1OCCC(C)O1 (centres undefined) ; growth inhibition observed: 7.6
